Reported pEC50 values for a set of compounds
Target: Transcriptional activator protein LasR (Pseudomonas aeruginosa (strain ATCC 15692 / PAO1 / 1C / PRS 101 / LMG12228), UniProt P25084)
Sequence (P25084 whole entry): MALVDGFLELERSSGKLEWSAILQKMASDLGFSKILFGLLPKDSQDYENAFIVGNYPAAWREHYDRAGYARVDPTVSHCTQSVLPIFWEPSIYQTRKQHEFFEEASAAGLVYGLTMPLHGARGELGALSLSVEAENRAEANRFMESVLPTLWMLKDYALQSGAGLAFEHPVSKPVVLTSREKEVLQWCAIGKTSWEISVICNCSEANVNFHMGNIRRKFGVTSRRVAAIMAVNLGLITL
Experiment: Activation of LasR in Pseudomonas aeruginosa PAO-JP2 harboring plasI-LVAgfp incubated for 6 hrs by fluorescence method
In textbook form, pEC50 equals minus log to base ten of the concentration in mol/L.

- smilesData: "CCC(=O)CC(=O)Nc1ccccc1O"
  pEC50: 4.77

Given the compound O=C(Cc1ccc(C(F)(F)F)cc1)N[C@H]1CCOC1=O , what is its reported pEC50? 3.85

# query: pEC50 of entry N#CSCC(=O)CC(=O)N[C@H]1CCOC1=O 5.59

Name the reported pEC50 value associated with the compound O=C(COc1cccc(Br)c1)N[C@H]1CCSC1=O 5.38
